- Test system: RAW264.7
- protocol: Cytotoxicity activity mouse RAW264.7 cells assessed as effect on cell viability at 25 uM incubated for 24 hrs by MTT assay
- Assay type: toxicity, cell-based
- stated-conditions: raw264.7, 24 h
value-kind: Activity

Record excerpt, results attached:
compound | target-desc | result
COc1ccc([C@@H]2OC[C@H]3[C@@H]2CO[C@@H]3c2ccc(O[C@H]3O[C@H](COC(=O)c4cn(-c5ccc(Cl)cc5)nn4)[C@@H](O)[C@H](O)[C@H]3O)c(OC)c2)cc1OC | RAW264.7 | Non-Toxic
COc1ccc([C@H]2OC[C@@H]3[C@H]2CO[C@@H]3c2ccc(O[C@@H]3O[C@@H](COC(=O)c4cc5ccccc5cn4)[C@H](O)[C@@H](O)[C@@H]3O)c(OC)c2)cc1OC (stereo in doubt) | RAW264.7 | Non-Toxic
COc1ccc([C@H]2OC[C@@H]3[C@H]2CO[C@@H]3c2ccc(O[C@@H]3O[C@@H](COC(=O)c4nccc5ccccc45)[C@H](O)[C@@H](O)[C@@H]3O)c(OC)c2)cc1OC (stereo in doubt) | RAW264.7 | Non-Toxic
COc1ccc([C@@H]2OC[C@H]3[C@@H]2CO[C@@H]3c2ccc(O[C@H]3O[C@H](COC(=O)c4cn(-c5ccc(F)cc5)nn4)[C@@H](O)[C@H](O)[C@H]3O)c(OC)c2)cc1OC | RAW264.7 | Non-Toxic

Now take the following compound into account.
Input line: Given the compound COc1ccc([C@@H]2OC[C@H]3[C@@H]2CO[C@@H]3c2ccc(O[C@H]3O[C@H](COC(=O)/C=C/c4ccccc4)[C@@H](O)[C@H](O)[C@H]3O)c(OC)c2)cc1OC , what is its reported Activity?
Output line: Non-Toxic

* * *

- Tested on: RAW264.7
- protocol: Cytotoxicity activity mouse RAW264.7 cells assessed as effect on cell viability at 25 uM incubated for 24 hrs by MTT assay
- Assay type: toxicity, cell-based
- stated-conditions: raw264.7, 24 h
value-kind: Activity

compound | result
COc1ccc([C@@H]2OC[C@H]3[C@@H]2CO[C@@H]3c2ccc(O[C@H]3O[C@H](COC(=O)[C@H](CCSC)NC(=O)OC(C)(C)C)[C@@H](O)[C@H](O)[C@H]3O)c(OC)c2)cc1OC | Non-Toxic
COc1ccc([C@H]2OC[C@@H]3[C@H]2CO[C@@H]3c2ccc(O[C@@H]3O[C@@H](COC(=O)c4cccc5ncccc45)[C@H](O)[C@@H](O)[C@@H]3O)c(OC)c2)cc1OC (stereo in doubt) | Non-Toxic
COc1ccc([C@@H]2OC[C@H]3[C@@H]2CO[C@@H]3c2ccc(O[C@H]3O[C@H](COC(=O)CNC(=O)OC(C)(C)C)[C@@H](O)[C@H](O)[C@H]3O)c(OC)c2)cc1OC | Non-Toxic

* * *

- System: RAW264.7
- protocol: Cytotoxicity activity mouse RAW264.7 cells assessed as effect on cell viability at 25 uM incubated for 24 hrs by MTT assay
- Type: toxicity, cell-based
- stated-conditions: raw264.7, 24 h

compound | Activity
COc1ccc([C@H]2OC[C@@H]3[C@H]2CO[C@@H]3c2ccc(O[C@@H]3O[C@@H](COC(=O)c4cnc5ccccc5c4)[C@H](O)[C@@H](O)[C@@H]3O)c(OC)c2)cc1OC (stereo in doubt) | Non-Toxic
COc1ccc(/C=C/C(=O)OC[C@H]2O[C@H](Oc3ccc([C@H]4OC[C@H]5[C@@H]4CO[C@H]5c4ccc(OC)c(OC)c4)cc3OC)[C@H](O)[C@@H](O)[C@@H]2O)cc1 | Non-Toxic
COc1ccc([C@@H]2OC[C@H]3[C@@H]2CO[C@@H]3c2ccc(O[C@H]3O[C@H](COC(=O)[C@H](CC(C)C)NC(=O)OC(C)(C)C)[C@@H](O)[C@H](O)[C@H]3O)c(OC)c2)cc1OC | Non-Toxic
